# Assayed System: muscarinic binding site
# Assay Explanation: inhibition of specific binding at the muscarinic binding site
# Protocol: The compounds were assayed at one or more concentrations in each binding assay.
Structures can show the parent of a compound that is named as a salt.
condition met if IC50 is below 1000 nM. condition not met if not; exact matches included in condition not met.

- Molecule: "CCN1CCC(c2ccc(F)cc2)=C(C(=O)OC)C1 [Example 38]"
  Assayed System: "muscarinic binding site"
  Cat: "condition not met"
- Molecule: "CCN1CCC(c2ccccc2)=C(C(=O)OCc2ccccc2)C1 [Example 1]"
  Assayed System: "muscarinic binding site"
  Cat: "condition met"
- Molecule: "CCCN1CCC(c2ccccc2)=C(C(=O)OCc2ccccc2)C1 [Example 2]"
  Assayed System: "muscarinic binding site"
  Cat: "condition not met"
- Molecule: "CCN1CCC(c2ccccc2)=C(C(=O)OC2CCCC2)C1 [Example 5]"
  Assayed System: "muscarinic binding site"
  Cat: "condition met"
- Molecule: "COC(=O)C1=CCCN(C)C1 [Arecoline, reference compound]"
  Assayed System: "muscarinic binding site"
  Cat: "condition not met"
- Molecule: "CCCN1CCC(c2cccc(C)c2)=C(C(=O)OC)C1 [Example 28]"
  Assayed System: "muscarinic binding site"
  Cat: "condition not met"
- Molecule: "CCN1CCC(c2ccccc2)=C(C(=O)NCCc2ccccc2)C1 [Example 52]"
  Assayed System: "muscarinic binding site"
  Cat: "condition not met"
- Molecule: "CCCN1CCC(c2ccccc2)=C(C(=O)OC)C1 [Example 22]"
  Assayed System: "muscarinic binding site"
  Cat: "condition not met"
- Molecule: "CCN1CCC(c2ccccc2)=C(C(=O)NC(C)C)C1 [Example 44, monohydrochloride]"
  Assayed System: "muscarinic binding site"
  Cat: "condition not met"
- Molecule: "CCN1CC=C(c2ccccc2)C(C(=O)OC2CCCC2)C1 (centres unmarked) [Example 88]"
  Assayed System: "muscarinic binding site"
  Cat: "condition met"
- Molecule: "CCN1CCC(c2ccccc2)=C(C(=O)NC2CCCCC2)C1 [Example 45, monohydrochloride]"
  Assayed System: "muscarinic binding site"
  Cat: "condition met"
- Molecule: "CCN1CC=C(c2ccccc2)C(C(=O)OC(C)C)C1 (centres unmarked) [Example 87]"
  Assayed System: "muscarinic binding site"
  Cat: "condition met"
- Molecule: "CCN1CCC(c2ccccc2)=C(C(=O)N(C(C)C)C(C)C)C1 [Example 53, monohydrochloride]"
  Assayed System: "muscarinic binding site"
  Cat: "condition met"
- Molecule: "CCCN1CCC(c2ccccc2)=C(C(=O)N(CC)CC)C1 [Example 41]"
  Assayed System: "muscarinic binding site"
  Cat: "condition not met"
- Molecule: "CCN1CCC(c2cccc(C)c2)=C(C(=O)OC)C1 [Example 27]"
  Assayed System: "muscarinic binding site"
  Cat: "condition not met"
- Molecule: "CCCN1CC=C(c2ccccc2)C(C(=O)OCc2ccccc2)C1 (centres unmarked) [Example 74]"
  Assayed System: "muscarinic binding site"
  Cat: "condition not met"
- Molecule: "COC(=O)C1=C(c2ccccc2)CCN(C)C1 [Example 21]"
  Assayed System: "muscarinic binding site"
  Cat: "condition not met"
- Molecule: "CCN1CCC(c2ccc(Cl)cc2)=C(C(=O)OC)C1 [Example 33]"
  Assayed System: "muscarinic binding site"
  Cat: "condition not met"
